metric_name: melting point (°C)
Answer with a number only, understood to be in °C.

Answered examples (3):
| smiles_representation | measurement_unit | melting point |
| --- | --- | --- |
| C[C@]12CC[C@H]3[C@@H](CCC4=Cc5c(cc6c(=O)n(-c7ccccc7)c(=O)nc-6n5-c5ccccc5)C[C@@]43C)[C@@H]1CC[C@@H]2O | °C | 257 |
| C[C@]12CC[C@H]3[C@@H](CCC4=Cc5c(cc6c(=O)n(-c7ccccc7)c(=O)nc-6n5Cc5ccccc5)C[C@@]43C)[C@@H]1CC[C@@H]2O | °C | 224 |
| CCCCn1c2nc(=O)n(-c3ccccc3)c(=O)c-2cc2c1C=C1CC[C@H]3[C@@H]4CC[C@H](O)[C@@]4(C)CC[C@@H]3[C@@]1(C)C2 | °C | 200 |

Please turn your attention to the following entry.
Documented melting point of Cn1c(=O)nc2n(Cc3ccccc3)c3c(cc-2c1=O)C[C@@]1(C)C(=C3)CC[C@H]2[C@@H]3CC[C@H](O)[C@@]3(C)CC[C@@H]21 : 215
